molecular target: HLA-DR DRB1*0101 (DR1) (Homo sapiens, UniProt P01903+P01911, A100R/D57E/F55L/F60I/F76Y/I96L/L162R/M171V/P40L/Q125E/R42F/V115G/Y59C); assay: biochemical; assay type: binding; settings: DRB1 *0101
I'd be grateful if you could share measured pIC50 for these entries.
Would you please state pIC50, meaning minus log10 of the concentration in mol/L, as a bare number?

// recorded pIC50 for `CC[C@H](C)[C@H](NC(=O)[C@H](Cc1c[nH]c2ccccc12)NC(=O)[C@@H](NC(=O)[C@@H](NC(=O)[C@H](CO)NC(=O)[C@H](CC(C)C)NC(=O)[C@@H](N)[C@@H](C)O)C(C)C)[C@@H](C)O)C(=O)NCC(=O)N[C@@H](C)C(=O)N[C@@H](C)C(=O)N1CCC[C@H]1C(=O)N[C@@H](CC(C)C)C(=O)N[C@H](C(=O)N[C@@H](CC(C)C)C(=O)N[C@@H](CO)C(=O)O)[C@@H](C)CC` : 8.51

// recorded pIC50 for `CC[C@H](C)[C@H](NC(=O)[C@H](Cc1ccc(O)cc1)NC(=O)[C@@H]1CCCN1C(=O)[C@H](CC(=O)O)NC(=O)[C@H](CCC(=O)O)NC(=O)[C@H](CC(C)C)NC(=O)[C@@H](NC(=O)[C@H](C)NC(=O)[C@@H](N)CCC(=O)O)C(C)C)C(=O)N[C@@H](CC(C)C)C(=O)N[C@@H](CC(C)C)C(=O)N[C@H](C(=O)N[C@@H](CO)C(=O)N[C@@H](CO)C(=O)N[C@@H](CCCCN)C(=O)O)C(C)C` : 7.47
